TEST TARGET: Dihydroorotate dehydrogenase (quinone), mitochondrial (Homo sapiens)
MEASUREMENT NOTES: Inhibition of human DHODH at 100 uM
Hi there, I'd appreciate the recorded inhibition for every entry that follows.
Give bare numbers, in %.

Illustrative cases are given below, each with its answer.
>>> result_value("Oc1cc(O)c2c(c1)O[C@H](c1ccc(O)c(O)c1)[C@@H](O)C2")
38
>>> result_value("O=c1c(O)c(-c2cc(O)c(O)c(O)c2)oc2cc(O)cc(O)c12")
41
>>> result_value("O=c1c(O)c(-c2ccc(O[C@@H]3O[C@H](CO)[C@@H](O)[C@H](O)[C@H]3O)c(O)c2)oc2cc(O)cc(O)c12 [SPIRAEOSIDE]")
16
>>> result_value("C=C1C(=O)O[C@@H]2[C@H]3C(C)=CC(=O)C3=C(C)C[C@@H](OC(=O)/C(C)=C/C)[C@@H]12")
3

Hi team, please reply with inhibition for each item in this list.
1. CC(=O)OCC1=C2[C@@H](OC(C)=O)C[C@@](C)(OC(C)=O)C(=O)CC[C@@]3(C)O[C@@H]3[C@H]2OC1=O
2. C[C@@H]1CC[C@H]2[C@@H](C)C(=O)O[C@@H]3O[C@@]4(C)CC[C@@H]1[C@]32OO4
3. C=C1C(=O)O[C@@H]2/C=C(/C)C(=O)[C@@H]3O[C@H]3[C@](C)(O)C[C@@H](OC(=O)C(C)C)[C@@H]12
4. O=c1cc(-c2ccc(O)cc2)oc2cc(O[C@@H]3O[C@H](CO)[C@@H](O)[C@H](O)[C@H]3O)cc(O)c12
5. O=C(/C=C/c1ccc(O)c(O)c1)O[C@H]1[C@H](O)C[C@](O)(C(=O)O)C[C@H]1OC(=O)/C=C/c1ccc(O)c(O)c1
6. C=C1C[C@@]23CC[C@H]4[C@@](C)(CCC[C@@]4(C)C(=O)O)[C@@H]2CC[C@@H]1C3
7. COc1ccc(-c2oc3cc(O)cc(O)c3c(=O)c2O)cc1O

Reply text:
[0, 0, 12, 10, 10, 28, 29]

###

Test system: Leishmania braziliensis
MEASUREMENT NOTES: Antileishmanial activity against Leishmania braziliensis promastigotes
Assay type: functional, organism-based
PROPERTY MEASURED: IC50

Inquiry: Which IC50 reading was recorded for the compound `CC(=O)OCC1=C2[C@@H](OC(C)=O)C[C@@](C)(OC(C)=O)C(=O)CC[C@@]3(C)O[C@@H]3[C@H]2OC1=O` ?
Reply text: 27.9 µM

###

TEST TARGET: Dihydroorotate dehydrogenase (fumarate) (Leishmania major)
MEASUREMENT NOTES: Binding affinity to Leishmania major DHODH assessed as change in melting temperature at 100 uM by SYPRO orange dye-based differential scanning fluorimetry
Hi there, I'd appreciate the recorded ΔTm for every entry that follows.
Answers are plain numbers, in °C.

>>> result_value("C=C1C(=O)O[C@@H]2[C@H]3C(C)=CC(=O)C3=C(C)C[C@@H](OC(=O)[C@]3(C)O[C@@H]3C)[C@@H]12")
-0.38
>>> result_value("C=C(C)C(=O)O[C@H]1C[C@@]2(C)OC(=CC2=O)[C@@H](C)C[C@H]2OC(=O)C(=C)[C@H]12")
-0.18
>>> result_value("C[C@@H]1CC[C@H]2[C@@H](C)C(=O)O[C@@H]3O[C@@]4(C)CC[C@@H]1[C@]32OO4 [ARTEMISININ]")
-0.14

Next item in the queue.
Inquiry: Which ΔTm reading was recorded for the compound `O=C(O)c1cc(=O)[nH]c(=O)[nH]1` ?
Reply text: 0.39

###

System: Leishmania amazonensis
MEASUREMENT NOTES: Antileishmanial activity against Leishmania amazonensis promastigotes
Type: functional, organism-based
PROPERTY MEASURED: pIC50
Give bare numbers, as −log10 of the molar value.

>>> result_value("O=C(O)/C=C/c1ccccc1")
4.81

Next item in the queue.
Inquiry: Which pIC50 reading was recorded for the compound `CC(=O)OCC1=C2[C@@H](OC(C)=O)C[C@@](C)(OC(C)=O)C(=O)CC[C@@]3(C)O[C@@H]3[C@H]2OC1=O` ?
Reply text: 4.34

###

TEST TARGET: Dihydroorotate dehydrogenase (fumarate) (Leishmania major)
MEASUREMENT NOTES: Inhibition of recombinant oligo-histidine-tagged Leishmania major DHODH expressed in Escherichia coli BL21(DE3) cells at 100 uM using DHO as substrate measured after 60 secs
Mark yes for reported inhibition of 40% or greater; mark no for anything smaller.

Some solved cases for reference:
>>> category("C[C@@H]1CC[C@H]2[C@@H](C)C(=O)O[C@@H]3O[C@@]4(C)CC[C@@H]1[C@]32OO4")
"yes"
>>> category("O=c1c(O)c(-c2ccc(O[C@@H]3O[C@H](CO)[C@@H](O)[C@H](O)[C@H]3O)c(O)c2)oc2cc(O)cc(O)c12 [SPIRAEOSIDE]")
"no"
>>> category("COc1ccc(-c2oc3cc(O)cc(O)c3c(=O)c2O)cc1O")
"yes"

Inquiry: Could you tell me if the measured inhibition of `O=C(/C=C/c1ccc(O)c(O)c1)O[C@H]1[C@H](O)C[C@](O)(C(=O)O)C[C@H]1OC(=O)/C=C/c1ccc(O)c(O)c1` reaches 40% or more?
Reply text: no

Inquiry: Please do the same for `O=c1c(O)c(-c2cc(O)c(O)c(O)c2)oc2cc(O)cc(O)c12` as well.
Reply text: yes

Inquiry: Please do the same for `O=c1cc(-c2ccc(O)cc2)oc2cc(O[C@@H]3O[C@H](CO)[C@@H](O)[C@H](O)[C@H]3O)cc(O)c12` as well.
Reply text: yes

Inquiry: Please do the same for `Oc1cc(O)c2c(c1)O[C@H](c1ccc(O)c(O)c1)[C@@H](O)C2` as well.
Reply text: yes

Inquiry: Please do the same for `C=C1C(=O)O[C@@H]2/C=C(/C)C(=O)[C@@H]3O[C@H]3[C@](C)(O)C[C@@H](OC(=O)C(C)C)[C@@H]12` as well.
Reply text: yes

###

Test system: Trypanosoma brucei rhodesiense
MEASUREMENT NOTES: Antitrypanosomal activity against Trypanosoma brucei rhodesiense STIB 900 trypomastigotes after 72 hrs by resazurin dye-based fluorescence assay
Format: functional, organism-based
PARTICULARS: STIB 900, 72 h
PROPERTY MEASURED: pIC50
Answers are plain numbers, as −log10 of the molar value.

Inquiry: Record `C=C1C(=O)O[C@@H]2/C=C(\CO)CC/C=C(\C)C[C@H](OC(=O)C(=C)[C@@H](O)CO)[C@@H]12` : what is its pIC50 with Trypanosoma brucei rhodesiense?
Reply text: 5.89

###

TEST TARGET: Dihydroorotate dehydrogenase (fumarate) (Leishmania major) (UniProt Q4QEW7)
Sequence (Q4QEW7 as listed by the source): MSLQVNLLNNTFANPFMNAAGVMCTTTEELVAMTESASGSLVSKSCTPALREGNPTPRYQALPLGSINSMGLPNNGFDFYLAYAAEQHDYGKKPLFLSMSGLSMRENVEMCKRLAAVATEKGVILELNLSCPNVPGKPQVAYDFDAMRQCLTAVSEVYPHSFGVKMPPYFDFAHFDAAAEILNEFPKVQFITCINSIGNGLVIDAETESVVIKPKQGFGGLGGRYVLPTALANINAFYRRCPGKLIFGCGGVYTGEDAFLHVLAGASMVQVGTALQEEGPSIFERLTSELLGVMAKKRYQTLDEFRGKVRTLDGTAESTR
MEASUREMENT NOTES: Binding affinity to Leishmania major DHODH assessed as change in melting temperature at 500 uM by differential scanning fluorimetry-based ThermoFMN assay
PROPERTY MEASURED: ΔTm (°C)
Answers are plain numbers, in °C.

Illustrative cases are given below, each with its answer.
>>> result_value("C=C(C)C(=O)O[C@H]1C[C@@]2(C)OC(=CC2=O)[C@@H](C)C[C@H]2OC(=O)C(=C)[C@H]12")
-0.22
>>> result_value("C=C1C(=O)O[C@@H]2/C=C(/C)C3=CC(=O)[C@@](C)(C[C@@H](OC(=O)/C(C)=C/C)[C@@H]12)O3 [ATRIPLICIOLIDTIGLATE]")
-0.85
>>> result_value("C=C1C(=O)O[C@@H]2[C@H]3C(C)=CC(=O)C3=C(C)C[C@@H](OC(=O)[C@]3(C)O[C@@H]3C)[C@@H]12")
-0.64

Inquiry: Which ΔTm reading was recorded for the compound C=C(C)C(=O)O[C@H]1C[C@@]2(C)OC(=CC2=O)/C(CO)=C\[C@H]2OC(=O)C(=C)[C@H]12 [GOIAZENSOLIDE] ?
Reply text: -0.84

###

Hi there, I'd appreciate the recorded IC50 for every entry that follows.
System: Leishmania braziliensis
MEASUREMENT NOTES: Antileishmanial activity against Leishmania braziliensis H3227 MHOM/BR/94/H-3227 promastigotes after 72 hrs by MTT assay
Type: functional, organism-based
PARTICULARS: H3227 MHOM/BR/94/H-3227, 72 h
Numbers only, in µM.

>>> result_value("C=C1C(=O)O[C@@H]2/C=C(/C)C(=O)/C=C/[C@](C)(O)C[C@@H](OC(=O)C(C)C)[C@@H]12")
9.2
>>> result_value("C=C1C(=O)O[C@@H]2C[C@H](C)[C@@]3(O)C[C@H](O)[C@@](C)(C[C@@H](OC(=O)C(C)C)[C@@H]12)O3")
20.4

Next item in the queue.
Inquiry: Which IC50 reading was recorded for the molecule `C=C1C(=O)O[C@@H]2/C=C(/C)C(=O)[C@@H]3O[C@H]3[C@](C)(O)C[C@@H](OC(=O)C(C)C)[C@@H]12` ?
Reply text: 6
